Source: PubChem BioAssay (NCI)

test system: UO-31 renal; assay: NCI tumour cell line growth inhibition, 48 h; in the data active = GI50 below about 0.43 µM; inactive = the rest
Hi there, use one of these labels in your reply, thanks! active, inactive

Cc1nnc(C[C@@H]2C=C(c3ccc(Cl)cc3)c3ccccc3-n3c(C)nnc32)o1; active

IN: What is the recorded call for this compound in the test? `CN(C)c1ccc(C(=S)c2ccc(N(C)C)cc2)cc1`
OUT: inactive

* * *

tested on: ACHN renal; assay: NCI tumour cell line growth inhibition, 48 h
readout_kind: TGI

Some entries whose results are on file:
CCOC(=O)NN(C(=O)OCC)c1ccc(N=Nc2ccc(OC)cc2)n1C; 58.2 µM
COc1ccccc1-n1cnc(N)c1C(=O)c1cc(OC)c(OC)c(OC)c1; > 100 µM
C#CCN(N=O)C(=O)NC(CCCCNC(=O)OCc1ccccc1)C(=O)OCc1ccccc1 (stereo unspecified); > 100 µM
CC1(C)OB(c2ccc(N(CCOS(C)(=O)=O)CCOS(C)(=O)=O)cc2)OC1(C)C; 14.2 µM
CC1=C(C(=O)Nc2cccc(Cl)c2)C(c2ccccc2O)C(C(=O)Nc2cccc(Cl)c2)=C(C)N1; 53.8 µM
Cc1cc(C)cc(Nc2nnc3n2S(=O)(=O)c2cc(C)c(Cl)cc2S3)c1; 47.8 µM
COc1ccc(-c2nc(-c3ccc(OC)cc3)n(-c3ccccc3)n2)cc1; > 100 µM
CC(=O)Nc1ccccc1-c1nc2ccccc2nc1-c1ccccc1; > 100 µM
O=C(O)c1cc(N=Nc2ccc([N+](=O)[O-])cc2)ccc1O; > 100 µM
C/C(=C1/N=C(c2cc([N+](=O)[O-])ccc2Cl)N(c2ccc(Br)cc2)C1=O)c1ccc(N(CCC#N)CCC#N)cc1C; > 100 µM

// input: 6 compounds below; output: TGI for each
1. C/C=C1\CC(C(=O)OCC)CCCCCCC1=O (stereo unspecified)
2. C/C(NNC(=O)c1ccccc1O)=C1\C=Nc2ccccc2S1
3. OCC1NC(COC2OC(CO)C(O)C(O)C2O)C(O)C(O)C1O (stereo unspecified)
4. c1ccc2c(c1)nnn2CNc1ccc(N2CCCCC2)cc1
5. CC[C@@]1(O)C(=O)OCc2c1cc1n(c2=O)Cc2cc3cc(Cl)ccc3nc2-1
6. COC(CNC(=O)CNC(=O)c1ccc(C(F)(F)F)cc1)OC

OUT:
1: > 100 µM; 2: > 100 µM; 3: > 100 µM; 4: > 100 µM; 5: 0.0107 µM; 6: > 100 µM

// input: 5 compounds below; output: TGI for each
1. CC(=O)N1C(C(=O)NN2CCOCC2)CSC1c1ccccc1 (stereo unspecified)
2. CC/C=C\C[C@H]1C/C=C2/C(=O)C=C[C@H]2C/C=C\CCCC(=O)O1
3. O=CC(OC(=O)c1ccccc1)C(OC(=O)c1ccccc1)C(COC(c1ccccc1)(c1ccccc1)c1ccccc1)OC(=O)c1ccccc1 (stereo unspecified)
4. COC(=O)c1cc(-c2ccc3ccccc3c2)[nH]c(=O)c1C#N
5. CCN(C(=O)N1CCN(c2cc3c(cc2F)c(=O)c(C(=O)O)cn3C2CC2)CC1)c1nc(-c2ccccc2)cs1

OUT:
> 100 µM
3.97 µM
24 µM
> 100 µM
9.47 µM
